Data origin: PubChem BioAssay (NCI)

system: SR leukemia; assay: NCI tumour cell line growth inhibition, 48 h
Please go through the items and note down their TGI.

Entry `C/C(=C\c1ccccc1)C(=O)NCc1ccc(C(=O)NCCc2ccccc2)cc1` : reported TGI = ?
> 100 µM

Entry `Cc1c(-c2ccccc2)nn2cc(-c3ccccc3)nnc12` : reported TGI = ?
> 100 µM

Entry `CC(C)N1CCN(Cc2ccc3c(NNC(=O)c4ccccc4)nc4cc(F)ccc4n23)CC1` : reported TGI = ?
6.83 µM

Entry `COc1cccc(-c2nn(-c3ccccc3)cc2-c2ccnc(NCCNC(=O)Nc3cccc(C(F)(F)F)c3)c2)c1` : reported TGI = ?
4.97 µM

Entry `O=C1Nc2ccccc2Cn2c1cc1oc(-c3ccccc3)cc12` : reported TGI = ?
> 100 µM

Entry COC(=O)C1C=CCON2CCc3c(n(C)c4ccccc34)C12 (centres undefined) : reported TGI = ?
> 100 µM

Entry CN(CCO)CCCC1COc2ccccc2O1 (centres undefined) : reported TGI = ?
> 100 µM

Entry `COc1ccc2c(C3(c4cn(C)c5cc(OC)ccc45)C(=O)Nc4ccc(Cl)cc43)cn(C)c2c1` : reported TGI = ?
6.83 µM

Entry `CN(Cc1cccc(F)c1)c1ccc(CO)c(Cl)c1` : reported TGI = ?
> 88.6 µM

Entry `O=[N+]([O-])c1ccccc1S(=O)(=O)c1ccccc1` : reported TGI = ?
> 100 µM

Entry CCC/C=C1\CCC(CN(C)C)C1=O (centres undefined) : reported TGI = ?
8.98 µM

Entry O=C(O)C1CCCCC1c1c2ccc(=O)c(O)c-2oc2c(O)c(O)ccc12 (centres undefined) : reported TGI = ?
> 100 µM

Entry CC1(C)C(=O)c2ccccc2OC1N1CCN(C2Oc3ccccc3C(=O)C2(C)C)CC1 (centres undefined) : reported TGI = ?
> 100 µM

Entry `CCCCCCCCCCCCCCCCNCCCN(C)CCCN` : reported TGI = ?
42.2 µM

Entry CCn1c(SC(C)C(=O)c2c(C)n(C)n(-c3ccccc3)c2=O)nc2ccccc2c1=O (centres undefined) : reported TGI = ?
> 100 µM

Entry `Brc1ccc2c3c1[C@H]1O[C@H]1c1cccc(c1-3)[C@@H]1O[C@H]21` : reported TGI = ?
> 100 µM

Entry `COc1ccc2[nH]c3c(c2c1)CCN[C@]31CS[C@@H]2c3c(OC(C)=O)c(C)c4c(c3[C@H](COC1=O)N1[C@@H]2[C@H]2c3c(cc(C)c(OC)c3O)C[C@@H]([C@@H]1O)N2C)OCO4` : reported TGI = ?
> 100 µM

Entry C[N+](C)(C)CC1CCC/C1=N/O (centres undefined) : reported TGI = ?
54.2 µM

Entry `COc1ccc2c(c1)C/C(=C\c1cccc3ccccc13)C2=O` : reported TGI = ?
> 100 µM

Entry `Cc1noc2c1C(=O)CCC2` : reported TGI = ?
> 100 µM

Entry `CCN(Cc1ccc(F)cc1)c1ccc(CO)c(C)c1` : reported TGI = ?
58.1 µM

Entry `O=C(CCC(=O)Nc1ccc(Cl)c(Cl)c1)CC(=O)c1ccc(F)cc1` : reported TGI = ?
> 100 µM

Entry O=c1[nH]c(=O)n(C2CC(O)C(CO)O2)cc1NN=NCCCc1ccccc1 (centres undefined) : reported TGI = ?
> 100 µM

Entry `O=c1oc2ccc([N+](=O)[O-])cc2c(Nc2ccc3c(c2)Sc2ccccc2O3)c1[N+](=O)[O-]` : reported TGI = ?
55.2 µM

Entry CCOP(=O)(OCC)C(c1ccccc1)N(C(=O)NC(F)(F)F)c1cccc(F)c1 (centres undefined) : reported TGI = ?
> 100 µM

Entry `C=C1c2nc3ccccc3n2C=C(c2ccc(C)cc2)N1c1ccc(C)cc1` : reported TGI = ?
> 74.3 µM

Entry `COc1ccc2c(c1)CC[C@@H]1[C@@H]2CC[C@]2(C)[C@@H](NC(=O)/C=C/c3ccc(O)c(O)c3)CC[C@@H]12` : reported TGI = ?
4.21 µM

Entry `O=c1c2c3c(sc2nc2n1N=C(c1ccc(Cl)cc1)CS2)CCCC3` : reported TGI = ?
> 100 µM

Entry `COc1cc(OC)c2nccc(NCCCN(C)C)c2c1[N+](=O)[O-]` : reported TGI = ?
> 100 µM

Entry `CS(=O)(=O)NNS(=O)(=O)c1ccccc1` : reported TGI = ?
> 100 µM

Entry COC1=C(C)C(=O)c2c(c(CCCl)c3n2CCC3O)C1=O (centres undefined) : reported TGI = ?
> 26.8 µM

Entry N#Cc1c(Br)n(C2OC(CO)C(O)C2O)c2ncnc(N)c12 (centres undefined) : reported TGI = ?
4.98 µM

Entry `CCN(CC)c1ccc(N=Nc2ccc([N+](=O)[O-])cc2OC(=O)/C=C/c2ccccc2)c(OC(=O)/C=C/c2ccccc2)c1` : reported TGI = ?
> 100 µM

Entry `Nc1c(O)cc(N=C2C(=O)C=CC=C2C(=O)O)c(O)c1C(=O)O` : reported TGI = ?
> 100 µM

* * *

system: SK-MEL-28 melanoma; experiment: NCI tumour cell line growth inhibition, 48 h
assay-metric: TGI (µM)
Enter your answer as a number in µM; do not include the unit.

Entry `COC(=O)/C=C\C(C#N)(C#N)N=Cc1ccccc1` : reported TGI = ?
14.3

Entry CCN1C(=O)CCCc2c1ccc(Nc1ncc(Cl)c(NC3[C@@H](C(N)=O)[C@@H]4C=C[C@H]3C4)n1)c2OC (some centres not stated) : reported TGI = ?
6.96

Entry `S=C(Nc1ccc(N=Nc2ccccc2)cc1)SCc1ccccc1` : reported TGI = ?
38

* * *

tested on: OVCAR-3 ovarian; assay: NCI tumour cell line growth inhibition, 48 h
Everything with TGI lower than 40 µM is 0 (no); everything else, including exactly 40 µM, is 1 (yes).

Quick check, TGI >= 40 µM? Cc1cn(C2C=CC(CO)O2)c(=O)[nH]c1=O (stereo not given)
1 (yes)

Quick check, TGI >= 40 µM? `CCN(CC)c1ccc(N=Nc2ccc([N+](=O)[O-])cc2OC(=O)/C=C/c2ccccc2)c(OC(=O)/C=C/c2ccccc2)c1`
1 (yes)

Quick check, TGI >= 40 µM? `CCCCCCCCCCCCCCCCNCCCN(C)CCCN`
0 (no)

Quick check, TGI >= 40 µM? `O=c1sc2c(s1)-c1sc(=O)sc1SS2`
1 (yes)

Quick check, TGI >= 40 µM? `Cc1cc(S(=O)(=O)/N=C/N(C)C)c(SC(=O)c2ccc(Cl)cc2)cc1Cl`
1 (yes)

Quick check, TGI >= 40 µM? `Cc1cc2cc3ccc(N(C)C)cc3nc2cc1N`
0 (no)

Quick check, TGI >= 40 µM? `C(=Nc1ccc(-c2nc3ccccc3[nH]2)cc1)c1ccc[nH]1`
1 (yes)

Quick check, TGI >= 40 µM? `COc1ccc(/C=C/C(=O)c2cc(C(C)(C)C)c(O)c(C(C)(C)C)c2)cc1OC`
1 (yes)

Quick check, TGI >= 40 µM? COc1cccc(/C=N/NC(=S)NC2CC3CCC2C3)c1O (stereo not given)
0 (no)

Quick check, TGI >= 40 µM? `CC(=O)OCc1cncn1S(=O)(=O)c1ccc(C)cc1`
1 (yes)

Quick check, TGI >= 40 µM? `O=C(CSc1ncn[nH]1)C[P+](c1ccccc1)(c1ccccc1)c1ccccc1`
1 (yes)

Quick check, TGI >= 40 µM? `Cc1nc2c(o1)C(=Nc1ccccc1)c1ccccc1C2=O`
0 (no)

Quick check, TGI >= 40 µM? CCCC(C)n1c(C)nc2c1C(=O)c1ccccc1C2=O (stereo not given)
1 (yes)

Quick check, TGI >= 40 µM? `COc1cc([C@@H]2c3cc4c(cc3[C@@H](Nc3ccccc3C(=O)c3ccccc3)[C@H]3COC(=O)[C@H]23)OCO4)cc(OC)c1OC`
1 (yes)

Quick check, TGI >= 40 µM? O=C1C2=C(c3ccccc31)C(c1ccccc1)N1C(=O)CSC1=N2 (stereo not given)
1 (yes)

* * *

tested on: SF-295 CNS; experiment: NCI tumour cell line growth inhibition, 48 h
assay-metric: TGI (µM)
Enter your answer as a number in µM; do not include the unit.

Entry `O=C1c2ccccc2C(=O)c2c(O)c(NCCCNCCO)cc(O)c21` : reported TGI = ?
23.1

Entry `COC(=O)/C=C\C(C#N)(C#N)N=Cc1ccccc1` : reported TGI = ?
36.1

Entry `CCOC(=O)c1sc2nc(SC)nc3c2c1NCN3c1ccc(F)c(F)c1` : reported TGI = ?
65.9

Entry `O=C1C=CC(=C(c2ccc(O)cc2)c2ccc(O)cc2)C=C1` : reported TGI = ?
25.1

Entry COc1cc(C2c3cc4c(cc3OC(Nc3ccccc3)C2C)OCO4)cc(OC)c1O (configuration not stated) : reported TGI = ?
15.6
